- Measurement target: T1, ECF35_3582
- T1 chain: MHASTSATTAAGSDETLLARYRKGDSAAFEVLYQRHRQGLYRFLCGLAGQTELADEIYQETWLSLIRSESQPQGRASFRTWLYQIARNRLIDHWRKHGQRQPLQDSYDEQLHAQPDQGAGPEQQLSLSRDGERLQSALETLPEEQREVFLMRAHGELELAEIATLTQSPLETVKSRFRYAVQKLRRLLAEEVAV
Recorded metric: fold repression

{"columns": ["Binder", "Observed"],
 "data": [
  ["AS30_35 (protein) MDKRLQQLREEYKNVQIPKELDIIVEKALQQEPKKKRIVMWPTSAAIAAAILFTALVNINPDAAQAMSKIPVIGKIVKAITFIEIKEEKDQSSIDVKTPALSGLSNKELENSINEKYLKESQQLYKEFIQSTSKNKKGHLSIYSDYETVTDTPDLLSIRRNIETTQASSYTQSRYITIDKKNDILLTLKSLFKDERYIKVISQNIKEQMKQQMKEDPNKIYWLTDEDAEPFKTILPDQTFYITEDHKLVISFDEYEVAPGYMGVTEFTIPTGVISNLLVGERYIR", 6.57],
  ["AS31_34 (protein) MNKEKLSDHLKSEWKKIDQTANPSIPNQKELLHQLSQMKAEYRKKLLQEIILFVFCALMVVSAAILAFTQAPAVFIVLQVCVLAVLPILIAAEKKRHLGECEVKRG", 2.06],
  ["AS25_1645 (protein) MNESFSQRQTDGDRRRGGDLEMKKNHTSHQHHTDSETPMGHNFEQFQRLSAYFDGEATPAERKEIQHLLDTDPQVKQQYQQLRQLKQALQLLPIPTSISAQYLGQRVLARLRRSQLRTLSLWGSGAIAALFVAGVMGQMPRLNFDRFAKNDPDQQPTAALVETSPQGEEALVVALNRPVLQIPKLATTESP", 2.98]
]}

Now for another entry.
Query: Entry AS03_1244 (protein) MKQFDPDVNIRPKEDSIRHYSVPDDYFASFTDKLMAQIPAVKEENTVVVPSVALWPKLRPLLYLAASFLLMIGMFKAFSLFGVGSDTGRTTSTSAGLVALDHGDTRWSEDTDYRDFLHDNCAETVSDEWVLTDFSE : reported fold repression = ?
Response: 1.37
